TARGET ENTITY: TEAD2 (Homo sapiens (Human))
Sequence (Q15562 whole entry): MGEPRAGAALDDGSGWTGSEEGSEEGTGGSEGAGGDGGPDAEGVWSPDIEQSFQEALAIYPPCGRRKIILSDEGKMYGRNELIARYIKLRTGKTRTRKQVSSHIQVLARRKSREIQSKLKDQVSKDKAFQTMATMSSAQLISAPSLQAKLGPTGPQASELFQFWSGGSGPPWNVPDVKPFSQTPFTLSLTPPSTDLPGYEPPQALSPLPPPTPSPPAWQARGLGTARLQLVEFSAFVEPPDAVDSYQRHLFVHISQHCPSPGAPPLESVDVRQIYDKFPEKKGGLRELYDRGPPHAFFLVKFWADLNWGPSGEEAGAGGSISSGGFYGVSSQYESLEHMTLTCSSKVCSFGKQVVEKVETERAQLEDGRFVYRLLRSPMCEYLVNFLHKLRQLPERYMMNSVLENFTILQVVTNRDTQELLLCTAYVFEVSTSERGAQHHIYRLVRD
PROCEDURE TEXT: In vitro palmitoylation (TEAD2 autopalmitoylation, streptavidin blot)
Format: biochemical
CONDITIONS USED: compound at 10 μM; Table 2
MEASURED PROPERTY: inhibition at 10 µM (%)

In [3]: df
Out[3]:
                           substance_smiles    measured_property  unit_name  reported
0  O=C(O)c1ccc(Nc2ccc(Nc3ccc(C45CC6CC(CC(C6)C4)C5)cc3)cc2)cc1  inhibition at 10 µM          %        78
1  O=C(O)[C@H]1CCCN1C(=O)Nc1ccc(Nc2ccc(C34CC5CC(CC(C5)C3)C4)cc2Cl)cc1  inhibition at 10 µM          %        79
2  O=C(O)Cn1ncc2ccc(Nc3ccc(C45CC6CC(CC(C6)C4)C5)cc3Cl)cc21  inhibition at 10 µM          %        78
